Test: Inhibition of Thermoplasma acidophilum ATCC25905 recombinant Tricorn protease-interacting factor F3 E101Q, N261T mutant using Leu-p-nitroanilide as a substrate after 30 mins
pIC50: −log10 of the molar value.

{"COMPOUND": "NC(Cc1ccccc1)C(=O)NC(CCCCNC(=O)OCc1ccccc1)C(=O)NO (stereo unspecified)", "pIC50": 4.52}
